Values compiled from patent US6239151A.

System: LPS-induced TNF-α release (THP1 cells)
Test: Inhibition of LPS-induced TNF-α release from THP1 cells (ELISA)
Format: cell-based
Measurement Parameters: Homo sapiens, THP-1, LPS 2 mg/ml, 3 hours at 37° C., TNF-α by ELISA, read-out: IC50 (concentration giving 50% inhibition of LPS-induced TNF-α release)
Observable: IC50 (nM)

Compound	Subject Of Test	Unit	IC50
CC(C)C[C@@H](C(=O)NN(CC(C)C)C(=O)[C@@H](C)N)[C@H](C/C=C/c1ccccc1)C(=O)NO [A]	LPS-induced TNF-α release (THP1 cells)	nM	303
CC(C)C[C@@H](C(=O)NN(CC(C)C)C(=O)Cn1ccnc1)[C@H](C/C=C/c1ccccc1)C(=O)NO [C]	LPS-induced TNF-α release (THP1 cells)	nM	201

(P) CC(C)C[C@@H](C(=O)NN(CC(C)C)C(=O)C(C)O)[C@H](C/C=C/c1ccccc1)C(=O)NO (mixture of isomers) [B]
(Q) CC(C)C[C@@H](C(=O)NN(CC(C)C)C(=O)C1CCNCC1)[C@H](C/C=C/c1ccccc1)C(=O)NO [D]
Which entry has a larger number for IC50, P or Q ? Write down the label attached to your selection.
P
(P: 589 nM, Q: 345 nM)
